The measured values listed here are drawn from paper PMC10454396.

# Assay Explanation: Phase I metabolic stability, rat liver microsomes
# Assay type: in vitro ADME
# Experimental Conditions: pooled liver microsomes, pH 7.4

Given Smiles	Endpoint Unit	microsomal CLint at 1 µM
C/C(=C\[C@H](C)CCCCC(=O)O)[C@@H]1O[C@@H]2C=C[C@H]1OC(=O)\C=C/C=C\C=C\[C@H]1O[C@@H]3C[C@H]1O[C@@H](/C=C/C[C@H]1O[C@H](C[C@H](O)[C@H]1C)[C@@H](O)[C@@H](O)/C=C/CC/C=C/C2)[C@@H]3C	µL/min/mg	239

* * *

# Assay Explanation: Plasma protein binding (RED), mouse plasma
# Type: in vitro ADME
# Experimental Conditions: CD-1, mouse, pooled plasma, pH 7.4, mouse plasma, 10 µM; read-out: PPB (converted)

Given Smiles	fraction unbound at 10 µM
C/C(=C\[C@H](C)CCCCC(=O)O)[C@@H]1O[C@@H]2C=C[C@H]1OC(=O)\C=C/C=C\C=C\[C@H]1O[C@@H]3C[C@H]1O[C@@H](/C=C/C[C@H]1O[C@H](C[C@H](O)[C@H]1C)[C@@H](O)[C@@H](O)/C=C/CC/C=C/C2)[C@@H]3C	0.121

* * *

# Assay Explanation: Plasma protein binding (RED), human plasma
# Assay type: in vitro ADME
# Experimental Conditions: pooled plasma, pH 7.4, human plasma, 10 µM, read-out: PPB (converted)
Experimental Readout: fraction unbound at 10 µM

Given Smiles	Experimental Readout	Numeric Readout
C/C(=C\[C@H](C)CCCCC(=O)O)[C@@H]1O[C@@H]2C=C[C@H]1OC(=O)\C=C/C=C\C=C\[C@H]1O[C@@H]3C[C@H]1O[C@@H](/C=C/C[C@H]1O[C@H](C[C@H](O)[C@H]1C)[C@@H](O)[C@@H](O)/C=C/CC/C=C/C2)[C@@H]3C	fraction unbound at 10 µM	0.13

* * *

# Assay Explanation: Phase I metabolic stability, mouse liver microsomes
# Type: in vitro ADME
# Experimental Conditions: pooled liver microsomes, pH 7.4

Given Smiles	Endpoint Unit	microsomal CLint at 1 µM
C/C(=C\[C@H](C)CCCCC(=O)O)[C@@H]1O[C@@H]2C=C[C@H]1OC(=O)\C=C/C=C\C=C\[C@H]1O[C@@H]3C[C@H]1O[C@@H](/C=C/C[C@H]1O[C@H](C[C@H](O)[C@H]1C)[C@@H](O)[C@@H](O)/C=C/CC/C=C/C2)[C@@H]3C	µL/min/mg	557

* * *

# Assay Explanation: Plasma protein binding (RED), rat plasma
# Type: in vitro ADME
# Experimental Conditions: Wistar, pooled plasma, pH 7.4, rat plasma, read-out: free fraction

Given Smiles	fraction unbound at 10 µM
C/C(=C\[C@H](C)CCCCC(=O)O)[C@@H]1O[C@@H]2C=C[C@H]1OC(=O)\C=C/C=C\C=C\[C@H]1O[C@@H]3C[C@H]1O[C@@H](/C=C/C[C@H]1O[C@H](C[C@H](O)[C@H]1C)[C@@H](O)[C@@H](O)/C=C/CC/C=C/C2)[C@@H]3C	> 0.1

* * *

# Assay Explanation: Plasma protein binding (RED), mouse plasma
# Assay type: in vitro ADME
# Experimental Conditions: CD-1, mouse, pooled plasma, pH 7.4, mouse plasma; read-out: free fraction

Given Smiles	fraction unbound at 10 µM
C/C(=C\[C@H](C)CCCCC(=O)O)[C@@H]1O[C@@H]2C=C[C@H]1OC(=O)\C=C/C=C\C=C\[C@H]1O[C@@H]3C[C@H]1O[C@@H](/C=C/C[C@H]1O[C@H](C[C@H](O)[C@H]1C)[C@@H](O)[C@@H](O)/C=C/CC/C=C/C2)[C@@H]3C	> 0.1
